test system: Bacillus subtilis; experiment: cleaved RNA product abundance (RNA/gDNA barcode ratio) relative to median wild-type variant (ratio to wild type); higher = more accumulation of the downstream cleavage product; conditions: experiment (reporter, strain, medium): exp 4a: truncated aprE reporter, strain BJT201 with 2% xylose (RNase J1 expressed); cleavage site: cggR-gapA (positions -7 to +36 mutated)

| seq string | target or system | cleaved RNA product abundance |
| --- | --- | --- |
| ACAGACGAAGGAGCCGCACAGAAGTTATCAAGGGATGAATAATCCCTCAATATAAATATCTCTCACTTATTTAAA | Bacillus subtilis | 0.365 |
| ACAGACGAAGGAGCCGCAAACAAGTTATTAAGGGATGAATAAACCCTCAATATAAATATCTCTCACTTATTTAAA | Bacillus subtilis | 0.38 |
| ACAGACGAAGGAGCCGCAAAGAAGTTATTAAGGGATGAATAATCACCCAATATAAATATCTCTCACTTATTTAAA | Bacillus subtilis | 0.129 |
| ACAGACGAAGGAGCCGCAAAAAAGTTATTAAGGGATGAATATTCCCTCAATATAAATATCTCTCACTTATTTAAA | Bacillus subtilis | 0.566 |
| ACAGACGAAGGAGCCGCAAAGAAGGTATTAAAGGATGAATAATCCCTCAATATAAATATCTCTCACTTATTTAAA | Bacillus subtilis | 0.189 |
| ACAGACGAAGGAGCCGCAAAGAATTTTTTAAGGGATGAATAATCCCTCAATATAAATATCTCTCACTTATTTAAA | Bacillus subtilis | 0.216 |
| ACAGACGAAGGAGCCGCAAAGAAGTTATTAAGGGCTGAATAATCCCACAATATAAATATCTCTCACTTATTTAAA | Bacillus subtilis | 0.0873 |
